assay: Cytotoxicity against HK-2 cells assessed as inhibition of cell growth incubated for 1 hr by MTT assay; format: toxicity, cell-based; details: human
Non-standard residues stand in square brackets, D forms with d. Residues, ends and D or L forms follow the SMILES beside them. Aad = N[C@@H](CCCC(=O)O)C(=O)O
Label scheme for IC50 at 1 h: lower segment = under 10 µM, middle segment = from 10 µM up to 60 µM, upper segment = 60 µM and over

Request: State the band of CC(C)C[C@H](NC(=O)[C@H](CC(C)C)NC(=O)[C@H](CCCCN)NC(=O)[C@H](CCCCN)NC(=O)[C@H](CC(C)C)NC(=O)[C@H](CC(C)C)NC(=O)[C@H](CCCCN)NC(=O)[C@H](CCCCN)NC(=O)[C@H](CC(C)C)NC(=O)[C@H](CC(C)C)NC(=O)[C@H](CCCCN)NC(=O)[C@H](CCC(=O)O)NC(=O)[C@H](CC(C)C)NC(=O)[C@@H](N)CC(C)C)C(N)=O (H-LLEKLLKKLLKKLL-NH2)
Result: middle segment

Request: State the band of CC(C)C[C@H](NC(=O)[C@H](CC(C)C)NC(=O)[C@H](CCCCN)NC(=O)[C@H](CCC(=O)O)NC(=O)[C@H](CC(C)C)NC(=O)[C@H](CC(C)C)NC(=O)[C@H](CCCCN)NC(=O)[C@H](CCCCN)NC(=O)[C@H](CC(C)C)NC(=O)[C@H](CC(C)C)NC(=O)[C@H](CCCCN)NC(=O)[C@H](CCCCN)NC(=O)[C@H](CC(C)C)NC(=O)[C@@H](N)CC(C)C)C(N)=O (H-LLKKLLKKLLEKLL-NH2)
Result: lower segment

Request: State the band of CC(C)C[C@H](NC(=O)[C@H](CC(C)C)NC(=O)[C@H](CCCCN)NC(=O)[C@H](CCCCN)NC(=O)[C@H](CCC(=O)O)NC(=O)[C@H](CC(C)C)NC(=O)[C@H](CCCCN)NC(=O)[C@H](CCCCN)NC(=O)[C@H](CC(C)C)NC(=O)[C@H](CC(C)C)NC(=O)[C@H](CCCCN)NC(=O)[C@H](CCCCN)NC(=O)[C@H](CC(C)C)NC(=O)[C@@H](N)CC(C)C)C(N)=O (H-LLKKLLKKLEKKLL-NH2)
Result: upper segment

***
Request: State the band of CC(C)C[C@H](NC(=O)[C@H](CC(C)C)NC(=O)[C@H](CCCCN)NC(=O)[C@H](CCCCN)NC(=O)[C@H](CC(C)C)NC(=O)[C@H](CC(C)C)NC(=O)[C@H](CCCCN)NC(=O)[C@H](CCCCN)NC(=O)[C@H](CC(C)C)NC(=O)[C@H](CC(C)C)NC(=O)[C@H](CCCCN)NC(=O)[C@@H](N)CCCCN)C(=O)N[C@@H](CCCCN)C(N)=O (H-KKLLKKLLKKLLK-NH2)
Result: upper segment

Request: State the band of CC(C)C[C@H](NC(=O)[C@H](CCCCN)NC(=O)[C@H](CC(C)C)NC(=O)[C@H](CC(C)C)NC(=O)[C@H](CCCCN)NC(=O)[C@H](CCCCN)NC(=O)[C@H](CC(C)C)NC(=O)[C@H](CC(C)C)NC(=O)[C@H](CCCCN)NC(=O)[C@H](CCCCN)NC(=O)[C@H](CC(C)C)NC(=O)[C@H](CC(C)C)NC(=O)[C@H](CCCCN)NC(=O)[C@H](CCCCN)NC(=O)[C@H](CC(C)C)NC(=O)[C@H](CC(C)C)NC(=O)[C@H](CCCCN)NC(=O)[C@@H](N)CCCCN)C(N)=O (H-KKLLKKLLKKLLKKLLKL-NH2)
Result: middle segment

Request: State the band of CC(C)C[C@H](NC(=O)[C@H](CC(C)C)NC(=O)[C@H](CCCCN)NC(=O)[C@H](CCCCN)NC(=O)[C@H](CC(C)C)NC(=O)[C@H](CC(C)C)NC(=O)[C@H](CCCCN)NC(=O)[C@H](CCCCN)NC(=O)[C@H](CCC(=O)O)NC(=O)[C@H](CC(C)C)NC(=O)[C@H](CCCCN)NC(=O)[C@H](CCCCN)NC(=O)[C@H](CC(C)C)NC(=O)[C@@H](N)CC(C)C)C(N)=O (H-LLKKLEKKLLKKLL-NH2)
Result: upper segment

Request: State the band of CC(C)C[C@H](NC(=O)[C@H](CC(C)C)NC(=O)[C@H](CCCCN)NC(=O)[C@H](CCCCN)NC(=O)[C@H](CC(C)C)NC(=O)[C@H](CCC(=O)O)NC(=O)[C@H](CCCCN)NC(=O)[C@H](CCCCN)NC(=O)[C@H](CC(C)C)NC(=O)[C@H](CC(C)C)NC(=O)[C@H](CCCCN)NC(=O)[C@H](CCCCN)NC(=O)[C@H](CC(C)C)NC(=O)[C@@H](N)CC(C)C)C(N)=O (H-LLKKLLKKELKKLL-NH2)
Result: upper segment

Request: State the band of CC(C)C[C@H](NC(=O)[C@H](CC(C)C)NC(=O)[C@H](CCC(=O)O)NC(=O)[C@H](CCCCN)NC(=O)[C@H](CC(C)C)NC(=O)[C@H](CC(C)C)NC(=O)[C@H](CCCCN)NC(=O)[C@H](CCCCN)NC(=O)[C@H](CC(C)C)NC(=O)[C@H](CC(C)C)NC(=O)[C@H](CCCCN)NC(=O)[C@H](CCCCN)NC(=O)[C@H](CC(C)C)NC(=O)[C@@H](N)CC(C)C)C(N)=O (H-LLKKLLKKLLKELL-NH2)
Result: middle segment

Request: State the band of CC(C)C[C@H](NC(=O)[C@H](CCCCN)NC(=O)[C@H](CC(C)C)NC(=O)[C@H](CC(C)C)NC(=O)[C@H](CCCCN)NC(=O)[C@H](CCCCN)NC(=O)[C@H](CC(C)C)NC(=O)[C@H](CC(C)C)NC(=O)[C@H](CCCCN)NC(=O)[C@H](CCCCN)NC(=O)[C@H](CC(C)C)NC(=O)[C@H](CC(C)C)NC(=O)[C@@H](N)CCCCN)C(N)=O (H-KLLKKLLKKLLKL-NH2)
Result: lower segment

Request: State the band of CC(C)C[C@H](NC(=O)[C@H](CCCCN)NC(=O)[C@H](CCCCN)NC(=O)[C@H](CC(C)C)NC(=O)[C@H](CC(C)C)NC(=O)[C@H](CCCCN)NC(=O)[C@H](CCCCN)NC(=O)[C@H](CC(C)C)NC(=O)[C@H](CC(C)C)NC(=O)[C@H](CCCCN)NC(=O)[C@H](CCCCN)NC(=O)[C@H](CC(C)C)NC(=O)[C@@H](N)CC(C)C)C(=O)N[C@@H](CCCC(=O)O)C(N)=O (H-LLKKLLKKLLKKL[Aad]-NH2)
Result: middle segment

====

assay: Therapeutic index, ratio of HC10 for mouse RBC to IC50 for cytotoxicity against RG cells (unknown origin); format: toxicity, cell-based; details: mouse RBC and RG cells, read-out: TI
Residues, ends and D or L forms follow the SMILES beside them.
MEASUREMENT NAME: selectivity ratio
One number for each entry.

Request: Can you look up the measured selectivity ratio of CC(C)C[C@H](NC(=O)[C@H](CC(C)C)NC(=O)[C@H](CCCCN)NC(=O)[C@H](CCC(=O)O)NC(=O)[C@H](CC(C)C)NC(=O)[C@H](CC(C)C)NC(=O)[C@H](CCCCN)NC(=O)[C@H](CCCCN)NC(=O)[C@H](CC(C)C)NC(=O)[C@H](CC(C)C)NC(=O)[C@H](CCCCN)NC(=O)[C@H](CCCCN)NC(=O)[C@H](CC(C)C)NC(=O)[C@@H](N)CC(C)C)C(N)=O (H-LLKKLLKKLLEKLL-NH2) for me?
Result: 3.04

Request: Can you look up the measured selectivity ratio of CC(C)C[C@H](NC(=O)[C@H](CC(C)C)NC(=O)[C@H](CCCCN)NC(=O)[C@H](CCCCN)NC(=O)[C@H](CC(C)C)NC(=O)[C@H](CC(C)C)NC(=O)[C@H](CCCCN)NC(=O)[C@H](CCCCN)NC(=O)[C@H](CC(C)C)NC(=O)[C@H](CC(C)C)NC(=O)[C@H](CCCCN)NC(=O)[C@H](CCCCN)NC(=O)[C@H](CC(C)C)NC(=O)[C@H](CC(C)C)NC(=O)[C@@H](N)CCCCN)C(=O)N[C@@H](CCCCN)C(N)=O (H-KLLKKLLKKLLKKLLK-NH2) for me?
Result: 1.34

Request: Can you look up the measured selectivity ratio of CC(C)C[C@H](NC(=O)[C@H](CC(C)C)NC(=O)[C@H](CCCCN)NC(=O)[C@H](CCCCN)NC(=O)[C@H](CC(C)C)NC(=O)[C@H](CC(C)C)NC(=O)[C@H](CCCCN)NC(=O)[C@H](CCCCN)NC(=O)[C@H](CC(C)C)NC(=O)[C@H](CC(C)C)NC(=O)[C@@H](N)CCCCN)C(=O)N[C@@H](CCCCN)C(N)=O (H-KLLKKLLKKLLK-NH2) for me?
Result: 8.86

Request: Can you look up the measured selectivity ratio of CC(C)C[C@H](NC(=O)[C@H](CC(C)C)NC(=O)[C@H](CCCCN)NC(=O)[C@H](CCCCN)NC(=O)[C@H](CC(C)C)NC(=O)[C@H](CC(C)C)NC(=O)[C@H](CCCCN)NC(=O)[C@H](CCCCN)NC(=O)[C@H](CC(C)C)NC(=O)[C@H](CC(C)C)NC(=O)[C@H](CCCCN)NC(=O)[C@H](CCCCN)NC(=O)[C@H](CCC(=O)O)NC(=O)[C@@H](N)CC(C)C)C(N)=O (H-LEKKLLKKLLKKLL-NH2) for me?
Result: 2.58

Kindly review the next compound as well.
Request: Can you look up the measured selectivity ratio of CC(C)C[C@H](NC(=O)[C@H](CCCCN)NC(=O)[C@H](CC(C)C)NC(=O)[C@H](CC(C)C)NC(=O)[C@H](CCCCN)NC(=O)[C@H](CCCCN)NC(=O)[C@H](CC(C)C)NC(=O)[C@H](CC(C)C)NC(=O)[C@H](CCCCN)NC(=O)[C@H](CCCCN)NC(=O)[C@H](CC(C)C)NC(=O)[C@H](CC(C)C)NC(=O)[C@H](CCCCN)NC(=O)[C@H](CCCCN)NC(=O)[C@H](CC(C)C)NC(=O)[C@H](CC(C)C)NC(=O)[C@@H](N)CCCCN)C(N)=O (H-KLLKKLLKKLLKKLLKL-NH2) for me?
Result: 0.406
